Hello, the source for this data is patent US20150087627A1, in case you need it.

# assayedTarget: PI3K δ (Homo sapiens, UniProt O00329)
# Construct: purchased Upstate / Millipore Corporation
# Sequence (O00329 whole entry): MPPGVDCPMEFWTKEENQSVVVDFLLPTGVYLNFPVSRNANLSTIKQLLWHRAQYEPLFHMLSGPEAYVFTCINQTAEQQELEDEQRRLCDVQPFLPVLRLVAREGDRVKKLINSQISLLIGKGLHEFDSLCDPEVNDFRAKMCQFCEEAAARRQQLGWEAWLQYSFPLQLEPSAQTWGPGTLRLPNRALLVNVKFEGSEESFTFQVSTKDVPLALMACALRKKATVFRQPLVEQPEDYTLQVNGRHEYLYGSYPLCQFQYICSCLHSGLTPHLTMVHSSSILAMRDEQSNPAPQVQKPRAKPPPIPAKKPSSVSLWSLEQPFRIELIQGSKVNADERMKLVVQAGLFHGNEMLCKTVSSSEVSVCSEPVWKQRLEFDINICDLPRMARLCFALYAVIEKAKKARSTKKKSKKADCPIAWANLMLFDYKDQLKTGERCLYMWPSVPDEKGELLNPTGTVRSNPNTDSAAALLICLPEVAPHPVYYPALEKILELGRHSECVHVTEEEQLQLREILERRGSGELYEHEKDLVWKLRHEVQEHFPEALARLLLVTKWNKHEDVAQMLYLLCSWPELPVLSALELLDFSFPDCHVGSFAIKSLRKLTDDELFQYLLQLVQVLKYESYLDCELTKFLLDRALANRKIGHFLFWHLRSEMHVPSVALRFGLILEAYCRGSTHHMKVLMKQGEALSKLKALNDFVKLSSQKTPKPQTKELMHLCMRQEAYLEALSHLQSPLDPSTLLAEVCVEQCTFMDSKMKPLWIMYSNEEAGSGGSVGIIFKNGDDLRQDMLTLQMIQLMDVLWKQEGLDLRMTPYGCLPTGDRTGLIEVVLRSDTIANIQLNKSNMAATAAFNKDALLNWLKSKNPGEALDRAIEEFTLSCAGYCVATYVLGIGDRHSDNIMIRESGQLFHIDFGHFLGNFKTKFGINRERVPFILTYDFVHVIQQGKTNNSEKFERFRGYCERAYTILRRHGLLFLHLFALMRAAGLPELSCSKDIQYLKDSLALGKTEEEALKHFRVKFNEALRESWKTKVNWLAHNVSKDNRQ
# Sequence (P27986 whole entry partner): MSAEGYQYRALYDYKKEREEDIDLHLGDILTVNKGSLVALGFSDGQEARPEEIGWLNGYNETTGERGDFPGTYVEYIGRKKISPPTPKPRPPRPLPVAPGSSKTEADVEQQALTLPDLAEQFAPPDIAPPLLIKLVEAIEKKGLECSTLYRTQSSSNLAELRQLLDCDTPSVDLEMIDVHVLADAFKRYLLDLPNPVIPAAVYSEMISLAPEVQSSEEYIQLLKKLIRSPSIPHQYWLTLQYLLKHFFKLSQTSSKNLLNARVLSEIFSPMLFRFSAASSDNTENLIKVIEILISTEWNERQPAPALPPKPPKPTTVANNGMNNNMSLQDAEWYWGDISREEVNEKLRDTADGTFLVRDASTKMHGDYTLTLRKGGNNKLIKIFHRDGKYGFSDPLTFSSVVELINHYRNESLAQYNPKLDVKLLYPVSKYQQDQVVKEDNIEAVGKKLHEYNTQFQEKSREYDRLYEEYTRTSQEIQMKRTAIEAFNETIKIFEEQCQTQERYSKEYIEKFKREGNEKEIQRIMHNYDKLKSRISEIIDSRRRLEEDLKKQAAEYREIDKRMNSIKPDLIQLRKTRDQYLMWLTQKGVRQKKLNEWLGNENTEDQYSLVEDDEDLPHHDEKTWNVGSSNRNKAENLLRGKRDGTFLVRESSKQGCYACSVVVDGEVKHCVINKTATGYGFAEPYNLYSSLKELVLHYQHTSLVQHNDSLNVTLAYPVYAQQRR
# testDetails: PI 3-Kinase (human) HTRF assay, PI3K δ
# Type: biochemical
# conditionDescription: read-out: PI3K δ IC50
experimentalEndpoint: IC50

# input Query IC50 on PI3K δ (Homo sapiens, UniProt O00329) for CC(=O)Nc1cn2cc(-c3ccc4oc(N)nc4c3)ccc2n1
# output < 0.1 µM

# input Form entry - test system: PI3K δ (Homo sapiens, UniProt O00329); read-out: IC50; molecule: CC(C)N1CCN(C(=O)c2cnc3ccc(-c4ccc5oc(N)nc5c4)cn23)CC1
# output > 10 µM

# input Test system PI3K δ (Homo sapiens, UniProt O00329); read-out IC50; what value for O=C(c1cnc2ccc(-c3cncc4[nH]ncc34)cn12)N1CCOCC1 ?
# output > 10 µM

# input Missing value: IC50, PI3K δ (Homo sapiens, UniProt O00329), entry Nc1nc2cc(-c3ccc4ncc(-c5ccncc5)n4c3)ccc2o1 . Fill in?
# output < 1 µM

# input Which measured IC50 belongs to Nc1nc2cccc(-c3ccc4nccc(-c5ccncc5)c4c3)c2s1 , tested on PI3K δ (Homo sapiens, UniProt O00329)?
# output < 1 µM

# input I'm curious: which IC50 was measured for Nc1nc2cc(-c3ccc4ncc(C(=O)N5CCC5)n4c3)ccc2o1 tested on PI3K δ (Homo sapiens, UniProt O00329)?
# output < 10 µM

# input Notebook entry, PI3K δ (Homo sapiens, UniProt O00329) assay: IC50 of Nc1nc2cc(-c3ccc4oc(N)nc4c3)ccc2o1 = ?
# output < 10 µM

# input What measured IC50 is associated with CS(=O)(=O)Nc1cccc(-c2ccc3ncc(C(=O)N4CCOCC4)n3c2)c1 on PI3K δ (Homo sapiens, UniProt O00329)?
# output > 10 µM

# input Can you look up IC50 on PI3K δ (Homo sapiens, UniProt O00329) for Nc1nc2cc(-c3ccc4ncc(NCCCN5CCCC5)nc4c3)ccc2o1 ?
# output < 0.1 µM

# input Write down the reported IC50 of Nc1ncc(-c2ccc3ncc(C(=O)N4CCOCC4)n3c2)cc1C(F)(F)F , test system: PI3K δ (Homo sapiens, UniProt O00329).
# output > 10 µM

# input Form: Entry = CS(=O)(=O)N1CCC(Nc2ncnc3ccc(-c4ccc5oc(N)nc5c4)cc23)CC1 | System = PI3K δ (Homo sapiens, UniProt O00329) | IC50 = ____
# output < 0.1 µM

# input # returns recorded IC50 (system: PI3K δ (Homo sapiens, UniProt O00329)) for CC(Oc1nc(-c2ccc3oc(N)nc3c2)cnc1N)C(F)(F)F (centres unmarked)
# output < 10 µM

# input # query: IC50 | item CN1CCN(C(=O)c2cnn3ccc(-c4ccc5oc(N)nc5c4)cc23)CC1 | system: PI3K δ (Homo sapiens, UniProt O00329)
# output > 10 µM

# input IC50 of CC(C)N1CCC(Nc2ncnc3ccc(-c4ccc5oc(N)nc5c4)cc23)CC1 on PI3K δ (Homo sapiens, UniProt O00329)?
# output < 1 µM

# input Missing value: IC50, PI3K δ (Homo sapiens, UniProt O00329), entry Nc1nc2cc(-c3ccc4ncc(N5CC(N6CCN(CC7CC7)CC6)C5)nc4c3)ccc2o1 . Fill in?
# output < 10 µM

# input Give recorded IC50 with PI3K δ (Homo sapiens, UniProt O00329) for the following molecule: Nc1nc2cc(-c3ccc4nccc(NC5CCOCC5)c4c3)ccc2o1
# output > 10 µM

# input Request: IC50, test system PI3K δ (Homo sapiens, UniProt O00329), entry Nc1nc2cc(-c3ccc4ncc(C(=O)N5CCC(F)(F)CC5)n4c3)ccc2o1
# output > 10 µM

# input What value of IC50 on PI3K δ (Homo sapiens, UniProt O00329) does Nc1nc2cc(-c3nc(N4CCOCC4)c4cnn(C5CCNCC5)c4n3)ccc2o1 have?
# output < 10 µM

# input Please tell me: IC50 of CCN(CC)CCNC(=O)c1cnc2ccc(-c3ccc4oc(N)nc4c3)cn12 , system PI3K δ (Homo sapiens, UniProt O00329)?
# output < 1 µM

# input Recorded IC50 for Cc1c(-c2ccc3oc(N)nc3c2)ccc2ncc(N3CC(N4CCNCC4)C3)nc12 with PI3K δ (Homo sapiens, UniProt O00329), please?
# output > 10 µM

# input Which measured IC50 belongs to Nc1nc2cc(-c3ccc4ncn(CCO)c(=O)c4c3)ccc2o1 , tested on PI3K δ (Homo sapiens, UniProt O00329)?
# output > 10 µM

# input Record lookup: for PI3K δ (Homo sapiens, UniProt O00329), what IC50 belongs to CN1CCN(C(=O)c2cnc3ccc(-c4ccc5oc(N)nc5c4)nn23)CC1 ?
# output > 10 µM

# input Give IC50 (PI3K δ (Homo sapiens, UniProt O00329)) of the following molecule: CN1CCC(Nc2cnc3ccc(-c4ccc5oc(N)nc5c4)cc3n2)CC1
# output < 0.1 µM

# input Request body: readout IC50, system PI3K δ (Homo sapiens, UniProt O00329), query Nc1nc2cc(-c3ccn4ncc(-c5ccncc5)c4n3)ccc2o1 . Return the value.
# output < 0.1 µM

# input Write down the reported IC50 of C[C@H]1CN(c2cnc3ccc(-c4ccc5oc(N)nc5c4)cc3n2)CCN1 , test system: PI3K δ (Homo sapiens, UniProt O00329).
# output < 1 µM

# input Any idea what IC50 came out for CN1CCC(Oc2ncnc3ccc(-c4ccc5oc(N)nc5c4)cc23)CC1 on PI3K δ (Homo sapiens, UniProt O00329)?
# output < 1 µM

# input Query the reported IC50 for PI3K δ (Homo sapiens, UniProt O00329); item: Nc1nc2cc(-c3ccc4ncc(N5CCOCC5)nc4c3)ccc2o1
# output > 10 µM

# input Please tell me: IC50 of Nc1nc2cc(-c3ccc4ncc(C(=O)N(CCO)CCO)n4c3)ccc2o1 , system PI3K δ (Homo sapiens, UniProt O00329)?
# output > 10 µM

# input GET /values?readout=IC50&system=PI3K δ (Homo sapiens, UniProt O00329)&item= Nc1nc2cc(-c3ccc4ncc(N5CC(N6CCOCC6)C5)nc4c3)cc(Cl)c2o1
# output < 1 µM

# input Which measured IC50 belongs to Nc1nc2cc(-c3ccc4ncn(C5CC5)c(=O)c4c3)ccc2o1 , tested on PI3K δ (Homo sapiens, UniProt O00329)?
# output > 10 µM

# input Please provide the recorded IC50 for CN(C)C1CN(c2cnc3ccc(-c4ccc5oc(N)nc5c4)cc3n2)C1 , tested on PI3K δ (Homo sapiens, UniProt O00329).
# output > 10 µM

# input What value of IC50 on PI3K δ (Homo sapiens, UniProt O00329) does CC(=O)N1CCC(N(C)c2ncnc3ccc(-c4ccc5oc(N)nc5c4)cc23)CC1 have?
# output < 1 µM

# input Query for PI3K δ (Homo sapiens, UniProt O00329): what IC50 does the record show for CC(C)(N)C(=O)N1CCN(c2cnc3ccc(-c4ccc5oc(N)nc5c4)cc3n2)CC1 ?
# output < 1 µM

# input Query for PI3K δ (Homo sapiens, UniProt O00329): what IC50 does the record show for Nc1nc2nc(-c3ccc4ncc(C(=O)N5CCOCC5)n4c3)ccc2o1 ?
# output > 10 µM

# input Which IC50 is reported with PI3K δ (Homo sapiens, UniProt O00329) for this entry: Nc1nc2cc(-c3ccc4ncc(-c5cnn(CCO)c5)nc4c3)ccc2o1 ?
# output > 10 µM
